Provenance of the data: patent US11945816B2

# experimental target: EGFR InsH transformed Ba/F3 cells (Homo sapiens, UniProt P00533, DUP773-773)
# Sequence (P00533 with tags, fused parts or gaps DUP773-773): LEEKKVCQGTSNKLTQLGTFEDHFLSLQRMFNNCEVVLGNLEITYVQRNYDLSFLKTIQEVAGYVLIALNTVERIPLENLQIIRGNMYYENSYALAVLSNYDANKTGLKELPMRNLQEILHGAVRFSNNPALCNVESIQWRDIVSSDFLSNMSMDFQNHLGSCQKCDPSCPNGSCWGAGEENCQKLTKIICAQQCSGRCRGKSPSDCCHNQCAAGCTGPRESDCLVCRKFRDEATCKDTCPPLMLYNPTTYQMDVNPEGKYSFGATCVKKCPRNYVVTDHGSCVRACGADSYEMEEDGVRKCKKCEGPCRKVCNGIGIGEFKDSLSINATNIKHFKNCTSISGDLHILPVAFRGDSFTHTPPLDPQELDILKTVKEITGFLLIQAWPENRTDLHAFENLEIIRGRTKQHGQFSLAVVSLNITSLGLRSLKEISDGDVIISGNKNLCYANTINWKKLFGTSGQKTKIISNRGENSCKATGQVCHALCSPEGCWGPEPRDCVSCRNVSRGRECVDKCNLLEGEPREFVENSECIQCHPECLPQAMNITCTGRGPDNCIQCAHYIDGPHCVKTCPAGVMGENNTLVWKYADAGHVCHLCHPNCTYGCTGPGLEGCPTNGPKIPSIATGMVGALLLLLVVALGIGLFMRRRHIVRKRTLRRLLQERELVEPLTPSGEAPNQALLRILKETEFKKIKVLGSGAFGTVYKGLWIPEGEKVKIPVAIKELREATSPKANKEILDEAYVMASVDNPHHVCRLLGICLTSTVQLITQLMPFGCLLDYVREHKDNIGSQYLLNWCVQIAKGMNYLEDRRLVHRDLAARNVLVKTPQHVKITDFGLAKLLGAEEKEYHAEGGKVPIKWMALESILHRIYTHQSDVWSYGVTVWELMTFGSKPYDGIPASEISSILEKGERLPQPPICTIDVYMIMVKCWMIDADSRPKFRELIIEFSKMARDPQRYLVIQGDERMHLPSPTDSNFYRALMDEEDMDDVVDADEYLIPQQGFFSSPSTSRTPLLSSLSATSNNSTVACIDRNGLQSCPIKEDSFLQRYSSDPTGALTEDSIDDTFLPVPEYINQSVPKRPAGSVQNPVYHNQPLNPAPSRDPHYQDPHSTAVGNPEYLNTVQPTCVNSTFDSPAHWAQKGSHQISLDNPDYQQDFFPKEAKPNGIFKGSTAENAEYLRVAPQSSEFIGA
# experiment: Proliferation inhibition assay, EGFR InsH transformed Ba/F3 cells
# recorded conditions: MTS assay, 72 hours
pEC50: −log10 of the molar value.
readout: pEC50

Some solved cases for reference:
| compound | experimental target | measured value |
| --- | --- | --- |
| CN(C)C/C=C/C(=O)Nc1cccc(-n2c(=O)c(Oc3ccc(F)cc3F)cc3cnc(Nc4cnn(C)c4)nc32)c1 [Compound 10] | EGFR InsH transformed Ba/F3 cells (Homo sapiens, UniProt P00533, DUP773-773) | 6.00 to 6.22 |
| C=CC(=O)Nc1cccc(-n2c(=O)c(Oc3ccc(F)cc3F)cc3cnc(Nc4cn(C)nc4OC)nc32)c1 [Compound 4] | EGFR InsH transformed Ba/F3 cells (Homo sapiens, UniProt P00533, DUP773-773) | > 6.70 |
| C=CC(=O)N1C[C@H](Cn2c(=O)c(Oc3ccc(F)cc3F)cc3cnc(Nc4cnn(C)c4)nc32)[C@@H](OC)C1 [Compound 102] | EGFR InsH transformed Ba/F3 cells (Homo sapiens, UniProt P00533, DUP773-773) | 6.22 to 6.70 |
| C=CC(=O)Nc1cc(Nc2ncc3cc(Oc4ccc(F)cc4F)c(=O)n(C)c3n2)ccc1CCCN(C)C [Compound 117] | EGFR InsH transformed Ba/F3 cells (Homo sapiens, UniProt P00533, DUP773-773) | < 6.00 |
| C=CC(=O)Nc1cc(Nc2ncc3cc(Oc4ccc(F)cc4F)c(=O)n(C)c3n2)ncc1N(C)CCN(C)C [Compound 105] | EGFR InsH transformed Ba/F3 cells (Homo sapiens, UniProt P00533, DUP773-773) | < 6.00 |

[Q] Which pEC50 reading was recorded for the compound C=CC(=O)Nc1cc(Nc2ncc3cc(Nc4ccc(F)cc4F)c(=O)n(C)c3n2)c(OC)cc1N(C)CCN(C)C [Compound 141] ?
[A] 6.22 to 6.70

[Q] Which pEC50 reading was recorded for the compound C=CC(=O)Nc1cccc(-n2c(=O)c(Oc3ccc(F)cc3F)cc3cnc(Nc4cnn(C5CCN(C)CC5)c4)nc32)c1 [Compound 3] ?
[A] 6.22 to 6.70
